B1: tRNA (parent)
chain: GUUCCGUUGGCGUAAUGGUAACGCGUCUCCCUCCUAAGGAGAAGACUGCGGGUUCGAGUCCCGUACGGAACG

Variants of: B1
test.description: yeast fitness relative to wild type (ratio to wild type); higher = fitter; tRNA-Arg(CCU), competitive growth, 37 C, YPD
Fewer inactive variants are shown than the library holds.
For each record, write down the corresponding yeast fitness.
Answers are plain numbers.

Given GUUCCGUUGGCGUAAUGGUAACGUGUCUCCCUCCUAAGGAGAAGACUGCGCGUUCGAGUCCCGUACGGAACG [C24U G51C] , state its recorded yeast fitness.
0.624

For every record below, what is its yeast fitness?
1. GUUCCGUUGGCGUAAUGGUAAGGCGUCUCCCUCCUAAGGAGACGACUGCGGGUUCGAGUCCCGUACGGAACG [C22G A43C]
2. GUUCCGUUCGCGUAAUGGUAACGCGUCUCGCUCCUAAGGAGAAGAUUGCGGGUUCGAGUCCCGUACGGAACG [G9C C30G C46U]
3. GUUCCGUUGGCGUAAUGGUAACGCGUAUCCCUCCUAAGGACACGACUGCGGGUUCGAGUCCCGUAUGGAACG [C27A G41C A43C C66U]

0.708
0.564
0.517

For every record below, what is its yeast fitness?
1. GUUCCGUUGGCGUAAUGGUAACGCGUCUGCCUCCUAAGGAGAAGACUGCGGGUUCGAGUUCCGUACAGUACG [C29G C60U G67A A69U]
2. GUUCCGUUGGCAUAAUGGUAACGAGUCUCCCUCCUAAGGAGAAGACUGCGGGUUCGAGUCCCGCACGGAACG [G12A C24A U64C]
3. GUUCCGUUGGCGUAAUGGUUACGCGUCUCCCUCCUAAGGAGAAGACUGCGGGUUCGAGUCCCGUACAGAGCG [A20U G67A A70G]
4. GUUGCGUAGGCAUAAUGGUAACGCGUCUCCCUCCUAAGGAGAAGACUACGGGUUCGAGUCCCGUACGGAACG [C4G U8A G12A G48A]
5. GUUCCGUUGACGUAAUGGCAACGCGUCUCCCUCCUAAGGAGAAGACUAGGGGUUCGAGUCCCGUACGGAACG [G10A U19C G48A C49G]

1: 0.588; 2: 0.682; 3: 0.882; 4: 0.511; 5: 0.56

// data source = the RNAGym collection of RNA variant scans (doi:10.1126/science.aae0568)
